Each recorded value in this set is attributed to patent US10137099B2.

- Measurement Description: in vivo
- Details: rat
- Source text: I have investigated the toxicity of OAA in an acute study and two chronic studies. The dose ratio between toxic and therapeutic effects is the therapeutic index and it can be expressed as the ratio LD50/ED50.
Readout: NOAEL at 90 days (mg/kg)
Write the value in mg/kg as a bare number.

Problem: Name the recorded NOAEL at 90 days for O=C(O)CC(=O)C(=O)O .
Solution: 500
